Tested on: Giardia intestinalis JKH-1
assay.comment: in vitro growth inhibition of Giardia intestinalis
Format: cell-based
stated.conditions: Giardia duodenalis; in vitro; concentration required to inhibit 50% of the growth of the organisms
measured.attribute: IC50
# include the unit after the value

IC50 reading for CC(=O)Oc1ccccc1C(=O)Nc1ncc([N+](=O)[O-])s1 [Compound B, reference compound] : 12.5 µM

Continue with the next compound.
IC50 reading for `CC(=O)Oc1c(C)cccc1C(=O)Nc1ncc([N+](=O)[O-])s1` : 0.56 µM

The origin of these recorded values is patent US20060194853A1.
